# assay procedure: Blood-brain barrier permeability of the test substance in rats
# experimental conditions: male, SD, rat, brain, oral, 30 mg/kg
readout name: concentration at 0.25 h (ng/g)
State the answer as a number, implicitly in ng/g.

Example entries and their recorded answers appear below.
                                   compound  measurement_unit  measured_result
0  CCOc1ncc(C)nc1C1=CC2CN(C(=O)c3ccc(OC)cc3-n3nccn3)CC2C1 (stereo not shown)              ng/g              210
1  COc1ncc(C)nc1C1=CC2CN(C(=O)c3c(F)cccc3-n3nccn3)CC2C1 (stereo not shown)              ng/g              285
2  COc1cc(C(=O)N2CC3C=C(c4nc(C)cnc4OC)CC3C2)c(-n2nccn2)cn1 (stereo not shown)              ng/g              193

Continue with the compound presented below.
Can you look up the measured concentration at 0.25 h of COc1ccc(C(=O)N2CC3C=C(c4nc(C)cnc4OC)CC3C2)c(-n2nccn2)c1 (stereo not shown) for me? 990
